# tested-system: Shiga toxin 2 (Escherichia coli O157:H7) (UniProt P09385+P09386)
# assay-explanation: E. coli 0.157:H7 Shiga Toxin SOP - stx2 screening assay
# Format: functional
# Design: scale not given: direction of the effect not stated beside the values
# experimental-conditions: 30 µM
quantity: Percent Effect (%)
Unit % implied. Number only.

Below: 3 compounds and their reported Percent Effect.
CCOc1cc(C)ccc1NC(=O)N(C)Cc1cnn(C)c1: 24
CCOCCCNC(=O)c1cc(C(C)C)nc(N2CCCCCC2)n1: -56.1
O=C(c1csc(Br)c1)N1CCCC(n2ccnc2)C1 (centres undefined): -53.5

Could you now look at the following compound, please?
[in] Give the measured Percent Effect for N#Cc1ccc(CN2CCC(c3ccnn3CCO)CC2)cc1
[out] 23.2

---

# tested-system: Shiga toxin 2 (Escherichia coli O157:H7) (UniProt P09385+P09386)
# assay-explanation: E. coli 0.157:H7 Shiga Toxin SOP - stx2 screening assay
# Type: functional
# Design: scale not given: direction of the effect not stated beside the values
# experimental-conditions: 30 µM
quantity: Percent Effect (%)
Unit % implied. Number only.

Cc1n[nH]c(C)c1C1COCCN1C(=O)c1ccccc1 (centres undefined): -26
CC(C)NC(=O)[C@@H]1C[C@H](N)CN1C(=O)c1cc2c([nH]c1=O)CCCC2: -1.55
CCc1nnc2n1CCN(C(=O)c1csc(-c3cnn(C)c3)n1)C2: -15.8
O=C(Cc1ccc2c(c1)OCO2)N1CCN(c2cnccn2)CC1: 19
CCN(CC)C(=O)CCn1ncc2c(Cl)cccc21: -23.7
CCN1C[C@H]2CCN(C(=O)NC3CCCC3)CC[C@H]2S1(=O)=O: -57.6

[in] # assay system Shiga toxin 2 (Escherichia coli O157:H7) (UniProt P09385+P09386): give Percent Effect of O=C(NCc1cnc2n1CCN(c1ncc(F)cn1)CC2)C1CCC1
[out] 3.59

[in] # assay system Shiga toxin 2 (Escherichia coli O157:H7) (UniProt P09385+P09386): give Percent Effect of O=C(C1CCCC1)N1CCC2(CC1)COCCN2CC1CC1
[out] 0.147

[in] # assay system Shiga toxin 2 (Escherichia coli O157:H7) (UniProt P09385+P09386): give Percent Effect of O=C(C1=CCCCC1)N1CCC2(CC1)COC(COc1ccccn1)C2 (centres undefined)
[out] -19.1

[in] # assay system Shiga toxin 2 (Escherichia coli O157:H7) (UniProt P09385+P09386): give Percent Effect of CC(C)c1cc(NC(=O)CN2CCC(N3CCCCC3)CC2)on1
[out] -28.7

[in] # assay system Shiga toxin 2 (Escherichia coli O157:H7) (UniProt P09385+P09386): give Percent Effect of CC(=O)N1CCCC1c1cc(N2CCN(C3CCCC3)CC2)cc(C)n1 (centres undefined)
[out] 5

[in] # assay system Shiga toxin 2 (Escherichia coli O157:H7) (UniProt P09385+P09386): give Percent Effect of Cc1ccc(NC(=O)c2cc(S(=O)(=O)N3CCCCC3)c[nH]2)cc1F
[out] 17.8

[in] # assay system Shiga toxin 2 (Escherichia coli O157:H7) (UniProt P09385+P09386): give Percent Effect of CN(Cc1ccsc1)C(=O)CS(=O)(=O)Cc1ccc(Cl)c(Cl)c1
[out] 41.2

[in] # assay system Shiga toxin 2 (Escherichia coli O157:H7) (UniProt P09385+P09386): give Percent Effect of c1csc(-c2nc(CN3CCOC(Cn4cncn4)C3)cs2)c1 (centres undefined)
[out] 31.4

---

# tested-system: Shiga toxin 2 (Escherichia coli O157:H7) (UniProt P09385+P09386)
# assay-explanation: E. coli 0.157:H7 Shiga Toxin SOP - stx2 screening assay
# Type: functional
# Set-up: scale not given: direction of the effect not stated beside the values
# experimental-conditions: 30 µM
Binary call on Percent Effect with cut-off -10%: strictly below means Yes, and equality or higher means No.

Use the examples below as a reference point.
CC(C)NC(=O)N1CCC2(C1)CN(c1ccsc1)C(=O)CN2C (centres undefined): Yes
O=C(CSc1ccncc1)N1C[C@H]2CC[C@@H]1CN(Cc1cccnc1)C2: Yes
Cc1nc([C@@H]2C[C@@H]3CCN(C(=O)c4occc4C)C[C@H]3O2)no1: Yes

[in] Identify whether the compound CNS(=O)(=O)Cc1ccc(CNC(=O)c2ccc(C)[nH]c2=O)cc1 records Percent Effect below -10%.
[out] Yes

[in] Identify whether the compound CN(C)CC1(O)CCN(S(=O)(=O)c2ccc(F)c(F)c2)C1 (centres undefined) records Percent Effect below -10%.
[out] No

[in] Identify whether the compound CCOc1ccc(-c2ccnc(CC)n2)cc1C(=O)O records Percent Effect below -10%.
[out] No

[in] Identify whether the compound O=C(NCC1CCSCC1)N(CCCO)C1CCc2ccccc21 (centres undefined) records Percent Effect below -10%.
[out] Yes

[in] Identify whether the compound CC(C)NC(=O)N1CCc2ncc(CN3CCOCC3)n2CC1 records Percent Effect below -10%.
[out] No

[in] Identify whether the compound Cc1ncc(S(C)(=O)=O)c(C2CCCNC2)n1 (centres undefined) records Percent Effect below -10%.
[out] No

---

# tested-system: Shiga toxin 2 (Escherichia coli O157:H7) (UniProt P09385+P09386)
# assay-explanation: E. coli 0.157:H7 Shiga Toxin SOP - stx2 screening assay
# Type: functional
# Set-up: scale not given: direction of the effect not stated beside the values
# experimental-conditions: 30 µM
quantity: Percent Effect (%)
Unit % implied. Number only.

CCC(=O)N1CCC2(CC1)c1nc[nH]c1CCN2S(C)(=O)=O: 14.6

[in] Give the measured Percent Effect for CC(=O)c1cccc(OCCCC(=O)NCC2CCCN2C)c1 (centres undefined)
[out] -4.3

[in] Give the measured Percent Effect for CCOc1ccc(CC(=O)N2CCN(c3nccn3C)CC2)cc1
[out] -64.2

[in] Give the measured Percent Effect for COc1c(C2CCCN2C(=O)c2cc(Cl)c[nH]2)c(C)nn1C (centres undefined)
[out] -13

[in] Give the measured Percent Effect for COc1ccc(F)cc1C(C)NC(=O)Cn1ccc(=O)n(C)c1=O (centres undefined)
[out] -12.8

[in] Give the measured Percent Effect for O=C(Cn1nc(-c2ccc(F)cc2)oc1=O)NCc1ccc(F)cc1
[out] 32.8

[in] Give the measured Percent Effect for COC(=O)c1sccc1S(=O)(=O)N1CCC(Oc2cccnn2)CC1
[out] -7.45

[in] Give the measured Percent Effect for Cn1nc(C#N)c2c1CN(C(=O)c1cccnc1)CCC2
[out] -7.73

[in] Give the measured Percent Effect for CC(C)CN1CCN(Cc2nc3ccccc3[nH]2)[C@H]2CS(=O)(=O)C[C@H]21
[out] -16.9

[in] Give the measured Percent Effect for CN(C)c1ccc(CN(CCCn2ccnc2)Cc2c[nH]cn2)cc1
[out] -38.9

[in] Give the measured Percent Effect for Cc1nn(C)c(Cl)c1C1CCCN1C(=O)c1ccc2nncn2c1 (centres undefined)
[out] 2.44

[in] Give the measured Percent Effect for CC(=O)NCCC1CCCCN1S(=O)(=O)c1cccc(C#N)c1 (centres undefined)
[out] -30

[in] Give the measured Percent Effect for CN1CCCC1CNC(=O)c1nnn(-c2ccc(F)cc2)c1C1CC1 (centres undefined)
[out] -26

[in] Give the measured Percent Effect for Cc1cnc(N2CCC3(CCCN(c4ccc(C)nn4)C3)C2)nc1 (centres undefined)
[out] -25.4

[in] Give the measured Percent Effect for O=C1[C@@H]2CCN(Cc3ccoc3)C[C@@H]2OCCN1c1ccccc1
[out] 4.03

[in] Give the measured Percent Effect for O=c1nc(CNc2ccccc2)[nH]n1Cc1ccccc1
[out] 2.45

[in] Give the measured Percent Effect for Cc1cc2c(cc1C(=O)N1CC[C@H](CO)[C@@H](O)C1)OCCO2
[out] 8.21

[in] Give the measured Percent Effect for O=C(CC1CN(Cc2ccccc2)CCO1)Nc1ccccc1F (centres undefined)
[out] -0.0564

[in] Give the measured Percent Effect for Cc1oc(C)c(C(=O)NCc2cccc(NC(=O)CN(C)C)c2)c1C
[out] -39.7

[in] Give the measured Percent Effect for CCCC(C)C(=O)NCc1cn2cc(Br)ccc2n1 (centres undefined)
[out] -63.8

---

# tested-system: Tyrosyl-tRNA synthetase, putative (Trypanosoma cruzi (strain CL Brener)) (UniProt Q4DSP6)
# Sequence (Q4DSP6 as listed by the source): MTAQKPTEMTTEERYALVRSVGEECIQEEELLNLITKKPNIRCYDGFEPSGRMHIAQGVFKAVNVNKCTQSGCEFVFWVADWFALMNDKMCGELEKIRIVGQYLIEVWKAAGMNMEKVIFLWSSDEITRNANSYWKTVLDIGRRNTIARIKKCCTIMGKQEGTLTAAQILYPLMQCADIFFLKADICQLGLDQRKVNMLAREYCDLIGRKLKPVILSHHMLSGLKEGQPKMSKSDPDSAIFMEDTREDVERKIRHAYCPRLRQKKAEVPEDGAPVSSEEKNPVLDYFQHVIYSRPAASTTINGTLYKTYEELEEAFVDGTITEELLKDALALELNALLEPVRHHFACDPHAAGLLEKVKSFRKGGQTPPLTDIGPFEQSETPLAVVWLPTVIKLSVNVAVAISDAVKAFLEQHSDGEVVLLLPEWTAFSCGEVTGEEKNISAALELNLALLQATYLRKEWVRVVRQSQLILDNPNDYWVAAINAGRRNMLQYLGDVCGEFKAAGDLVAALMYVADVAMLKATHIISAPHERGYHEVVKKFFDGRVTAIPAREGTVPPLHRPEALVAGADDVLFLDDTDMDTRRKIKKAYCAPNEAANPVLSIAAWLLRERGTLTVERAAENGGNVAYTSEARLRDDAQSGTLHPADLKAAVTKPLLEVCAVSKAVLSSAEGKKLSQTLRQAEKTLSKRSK
# assay-explanation: Trypanosoma cruzi tyrosyl tRNA synthetase (TcYRS) SOP
# Format: functional
# Set-up: scale not given: direction of the effect not stated beside the values
# experimental-conditions: 30 µM
quantity: Percent Effect (%)
Unit % implied. Number only.

Below: 2 molecules and their reported Percent Effect.
Cc1nnc([C@H]2CC[C@@H]3[C@@H](CCN3Cc3c(C)noc3C)O2)o1: 22.5
CSc1nccc(N2CCN(C)C3(CCNC(=O)CC3)C2)n1 (stereo not drawn): 13.6

Could you now look at the following molecule, please?
[in] # assay system Tyrosyl-tRNA synthetase, putative (Trypanosoma cruzi (strain CL Brener)) (UniProt Q4DSP6): give Percent Effect of CCn1cc(CN2CCCN(C(=O)Cc3cccs3)CC2)cn1
[out] 29.1
